These measurements were taken from patent US20130136748A1.

- tested-on: T1, human HER1 (human, UniProt P00533 25-1210)
- T1 construct: also called EGFR; ErbB1
- procedure-text: FACS CHO-HER1, 222 nM
measurement-label: MCF

binder	MCF
17E08 (VHH) VHH: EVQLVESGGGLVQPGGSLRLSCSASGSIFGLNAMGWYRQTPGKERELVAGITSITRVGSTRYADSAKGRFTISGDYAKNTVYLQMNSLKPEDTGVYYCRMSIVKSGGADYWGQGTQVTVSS	66
17B05 (VHH, also called HER3MS17B05; HER3MS017B05) VHH: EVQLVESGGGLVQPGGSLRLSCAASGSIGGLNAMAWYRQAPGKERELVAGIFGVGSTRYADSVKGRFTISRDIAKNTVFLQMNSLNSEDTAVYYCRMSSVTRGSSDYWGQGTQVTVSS	85
18G11 (VHH, c-myc, His6-tagged form as expressed; also called HER3MS18G11; HER3MS018G11) VHH: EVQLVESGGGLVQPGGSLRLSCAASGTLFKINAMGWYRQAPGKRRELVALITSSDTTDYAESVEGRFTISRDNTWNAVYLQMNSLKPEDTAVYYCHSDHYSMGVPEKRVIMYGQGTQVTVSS	101

A = 18E08 (VHH) VHH: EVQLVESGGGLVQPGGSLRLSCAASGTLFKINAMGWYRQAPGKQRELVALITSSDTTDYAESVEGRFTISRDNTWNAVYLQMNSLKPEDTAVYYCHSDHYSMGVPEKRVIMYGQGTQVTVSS
B = 23F05 (VHH) VHH: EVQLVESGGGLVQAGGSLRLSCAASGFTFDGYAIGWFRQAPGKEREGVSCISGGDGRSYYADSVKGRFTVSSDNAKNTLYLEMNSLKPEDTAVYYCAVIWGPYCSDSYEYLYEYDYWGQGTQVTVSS
Lab note: check whether A or B shows the higher recorded MCF. Refer to your chosen item by its label in the answer.
B
(B: 153, A: 61)

A = 18B05 (VHH) VHH: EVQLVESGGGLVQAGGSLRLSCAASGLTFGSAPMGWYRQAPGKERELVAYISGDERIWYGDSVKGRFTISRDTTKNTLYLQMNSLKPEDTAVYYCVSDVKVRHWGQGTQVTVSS
B = 18F05 (VHH, also called 18F5) VHH: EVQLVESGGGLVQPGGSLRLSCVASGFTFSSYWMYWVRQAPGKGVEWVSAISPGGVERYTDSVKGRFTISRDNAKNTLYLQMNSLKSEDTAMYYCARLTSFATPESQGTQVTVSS
Dear colleague, could you let me know whether A or B has the lower recorded MCF? Thanks. Refer to your chosen item by its label in the answer.
A
